B1: Hairpin Ribozyme (parent)
chain: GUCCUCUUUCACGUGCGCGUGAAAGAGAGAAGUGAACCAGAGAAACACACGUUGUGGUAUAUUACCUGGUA

# Variants of: B1
# method-summary: self-cleavage, relative activity (ratio to wild type); higher = more cleavage; co-transcriptional
Please note: yes (1) applies when self-cleavage is 0.2 or greater, and no (0) applies otherwise.

Some solved entries appear below for comparison.
{"columns": ["sequence", "class-label"],
 "data": [
  ["GUCCUCUUUCACGUGCGCGUGAAUGAGAGAAGUGAACCAGAGAAACACACGUUGUGGCAUAUUACCUGGUA [A24U U58C]", "yes (1)"],
  ["GUCCUCUUUCACGUGCUCGUGAAAGAGAGAAGUGAACCAGAGAAACACACGUUCUGGUAUAUUACCUGGUA [G17U G54C]", "yes (1)"],
  ["GUCCACUGUCACGUGCGCGUGAAAGAGAGAAGUGAACCAGAGAAACACACGUUGUGGUAUAUUACCUGGUA [U5A U8G]", "yes (1)"]
]}

Challenge: State whether the measured self-cleavage reaches 0.2, counting equality as reaching it, for GUCCUCUUUCACGUGCGCGUGAAAGAGAGAGGUGAACCAGAGAAACACACGUUGUCGUAUAUUACCUGGUA [A31G G56C]
Response given: no (0)

Challenge: Could you verify whether the entry GUCCUCUUUCACGUGCGCGUGAAAGGGAGAAGUGAACCAAAGAAACACACGUUGUGGUAUAUUACCUGGUA [A26G G40A] shows self-cleavage of no less than 0.2?
Response given: yes (1)
